- ASSAY: The drug is tested on WLS-069 corresponding to human gut metagenome with ENA study accession number: PRJEB37062 and ENA sample accession number: ERS12561748 for biotransformation under anaerobic condition. The drug concentrations were measured over 9 timepoints collected between 0 and 24 hours of incubation by liquid-chromatography-coupled mass spectrometry (LC–MS); note: call rule not given here
- CONDITION_CONTEXT: 2 µM
REPORTED_METRIC: Bacterial Biotransformation

CC(=O)O[C@]1(C(C)=O)CC[C@H]2[C@@H]3C=C(Cl)C4=CC(=O)[C@@H]5C[C@@H]5[C@]4(C)[C@H]3CC[C@@]21C [CYPROTERONE ACETATE] :: Compound metabolized
COc1ccc(CCN(C)CCCC(C#N)(c2ccc(OC)c(OC)c2)C(C)C)cc1OC (stereo not given) :: Compound metabolized
CC(C)(Oc1ccc(CCNC(=O)c2ccc(Cl)cc2)cc1)C(=O)O [BEZAFIBRATE] :: Compound metabolized
Fc1ccc([C@@H]2CCNC[C@H]2COc2ccc3c(c2)OCO3)cc1 :: Compound metabolized
CCCCCOC(=O)Nc1nc(=O)n([C@@H]2O[C@H](C)[C@@H](O)[C@H]2O)cc1F :: Compound metabolized

// Bacterial Biotransformation value for C=CCN1CC[C@]23c4c5ccc(O)c4O[C@H]2C(=O)CC[C@@]3(O)[C@H]1C5 : Compound NOT metabolized

Data point: O=c1n(CCCN2CCN(c3cccc(Cl)c3)CC2)nc2ccccn12 ; Bacterial Biotransformation = Compound metabolized

Entry CCOC(=O)[C@H](CCc1ccccc1)N[C@@H](C)C(=O)N1[C@H](C(=O)O)C[C@@H]2CCC[C@@H]21 — recorded Bacterial Biotransformation = Compound metabolized

---

- ASSAY: The drug is tested on WLS-170 corresponding to human gut metagenome with ENA study accession number: PRJEB37062 and ENA sample accession number: ERS12561762 for biotransformation under anaerobic condition. The drug concentrations were measured over 9 timepoints collected between 0 and 24 hours of incubation by liquid-chromatography-coupled mass spectrometry (LC–MS)
- CONDITION_CONTEXT: 2 µM
Where a SMILES comes first, the peptide text is derived from it. [ ]: non-standard residue; d: D form. pGlu = O=C1CC[C@@H](C(=O)O)N1; Thz = O=C(O)[C@@H]1CSCN1
REPORTED_METRIC: Bacterial Biotransformation

Cc1ccc(S(=O)(=O)NC(=O)NN2CCCCCC2)cc1 [TOLAZAMIDE] :: Compound metabolized
c1ccc([C@H]2CN3CCSC3=N2)cc1 [LEVAMISOLE] :: Compound metabolized
CNC(=C[N+](=O)[O-])NCCSCc1csc(CN(C)C)n1 [NIZATIDINE] :: Compound metabolized
CCOC(=O)[C@H](CCc1ccccc1)N[C@@H](C)C(=O)N1[C@H](C(=O)O)C[C@@H]2CCC[C@@H]21 :: Compound metabolized
O=C1CC[C@@H](C(=O)N2CSC[C@H]2C(=O)O)N1 [PIDOTIMOD] ([pGlu]-[Thz]-OH) :: Compound NOT metabolized
CCCCC1=NC2(CCCC2)C(=O)N1Cc1ccc(-c2ccccc2-c2nnn[nH]2)cc1 [IRBESARTAN] :: Compound metabolized
NC(CO)(CO)CO.O=C(c1ccccc1)c1ccc2n1CCC2C(=O)O (stereo not drawn) [KETOROLAC TROMETHAMINE] :: Compound metabolized
COc1ccc2c3c1O[C@H]1C[C@@H](O)C=C[C@@]31CCN(C)C2 [GALANTAMINE] :: Compound metabolized
Cc1cc2c(cc1S(N)(=O)=O)S(=O)(=O)CCC2 :: Compound NOT metabolized
N#Cc1ccc(C(c2ccc(C#N)cc2)n2cncn2)cc1 [LETROZOLE] :: Compound NOT metabolized

Please look at the following compound next.
get_value(item= COc1cc2nc(N3CCN(C(=O)c4ccco4)CC3)nc(N)c2cc1OC [PRAZOSIN] , readout=Bacterial Biotransformation) returns Compound metabolized
